System: HL60/MX2
Assay: Antiproliferative activity against human HL60/MX2 cells after 72 hrs by SRB assay
Assay type: functional, cell-based
Conditions: HL60/MX2, 72 h
Parameter: IC50 (nM)

[
  {
    "Molecule": "CC(=O)N[C@@H](CSC(=S)NCCCCCCP(=O)(OC(C)C)OC(C)C)C(=O)O",
    "Study System": "HL60/MX2",
    "Parameter": "IC50",
    "Value Observed": 3000
  },
  {
    "Molecule": "CCOP(=O)(CCCCCCNC(=S)SC[C@H](NC(C)=O)C(=O)O)c1ccccc1 (some centres not stated)",
    "Study System": "HL60/MX2",
    "Parameter": "IC50",
    "Value Observed": 700
  }
]

* * *

Test system: HL-60
Test: Antiproliferative activity against human HL60 cells after 72 hrs by SRB assay
Format: functional, cell-based
Conditions: HL-60, 72 h
Parameter: IC50 (nM)

[
  {
    "Compound": "CC(=O)N[C@@H](CSC(=S)NCCCCCCP(=O)(OC(C)C)OC(C)C)C(=O)O",
    "Study System": "HL-60",
    "Parameter": "IC50",
    "Value Observed": 600
  },
  {
    "Compound": "CCOP(=O)(CCCCCCNC(=S)SC[C@H](NC(C)=O)C(=O)O)c1ccccc1 (some centres not stated)",
    "Study System": "HL-60",
    "Parameter": "IC50",
    "Value Observed": 400
  }
]
